# systemName: Fatty-acid amide hydrolase 1 (Rattus norvegicus) (UniProt P97612)
# Sequence (whole entry): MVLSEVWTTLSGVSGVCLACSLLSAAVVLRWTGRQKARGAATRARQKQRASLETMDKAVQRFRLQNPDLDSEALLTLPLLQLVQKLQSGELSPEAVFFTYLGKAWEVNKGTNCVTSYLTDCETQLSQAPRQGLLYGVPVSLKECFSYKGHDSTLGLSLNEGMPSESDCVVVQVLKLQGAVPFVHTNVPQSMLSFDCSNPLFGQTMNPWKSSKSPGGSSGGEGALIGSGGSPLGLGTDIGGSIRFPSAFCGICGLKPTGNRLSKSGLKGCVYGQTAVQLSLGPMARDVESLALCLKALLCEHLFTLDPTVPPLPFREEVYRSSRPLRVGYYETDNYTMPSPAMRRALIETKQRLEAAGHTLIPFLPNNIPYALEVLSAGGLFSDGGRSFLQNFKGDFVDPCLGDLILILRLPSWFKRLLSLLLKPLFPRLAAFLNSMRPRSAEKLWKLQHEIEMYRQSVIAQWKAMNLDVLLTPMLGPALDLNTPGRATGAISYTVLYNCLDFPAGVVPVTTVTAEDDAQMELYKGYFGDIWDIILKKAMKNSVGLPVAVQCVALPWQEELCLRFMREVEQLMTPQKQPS
# assaySummary: Inhibitory effect on the Fatty-acid amide hydrolase (FAAH) activity was determined by % inhibition of anandamide hydrolysis at 10 uM concentration of compound
# Type: functional
observable: Inhibition of anandamide hydrolysis
Could you write the number and then its unit?

Check out these entries, answers already filled in.
CCCCC/C=C\C/C=C\CCCCCCCC(=O)CCCO: 100%
CCCCC/C=C\C/C=C\C/C=C\C/C=C\CCC(C)(C)C(=O)OCCO: 12%
CCCCC/C=C\C/C=C\C/C=C\C/C=C\CCCC(=O)OCCO: 70%

Then there is this compound:
INPUT: Give Fatty-acid amide hydrolase 1 (Rattus norvegicus) (UniProt P97612) Inhibition of anandamide hydrolysis for CCCCC/C=C\C/C=C\C/C=C\C/C=C\CCCC(=O)CCCO
OUTPUT: 78%

----------
# systemName: Fatty-acid amide hydrolase 1 (Rattus norvegicus) (UniProt P97612)
# assaySummary: Inhibitory effect on the Fatty-acid amide hydrolase (FAAH) activity was determined by % inhibition of anandamide hydrolysis at 1 uM concentration of compound
# Format: functional
Quick list: Inhibition of anandamide hydrolysis per entry.
Respond numerically; units are % and should not be typed.

Some solved entries appear below for comparison.
CCCCC/C=C\C/C=C\C/C=C\C/C=C\CCCC(=O)CCCO: 91
CCCCC/C=C\C/C=C\C/C=C\C/C=C\CCC(C)(C)C(=O)OCCO: 90
CCCCC/C=C\C/C=C\C/C=C\C/C=C\CCCC(=O)OCCO: 100

INPUT: Given CCCCC/C=C\C/C=C\CCCCCCCC(=O)CCCO , state its recorded Inhibition of anandamide hydrolysis.
OUTPUT: 100

----------
# systemName: Fatty-acid amide hydrolase 1 (Rattus norvegicus, UniProt P97612)
# assaySummary: Binding affinity towards Fatty-acid amide hydrolase (FAAH) in rat forebrain membranes
# Format: cell membranes, Membrane
observable: pKi
pKi (log units): -log10 of the concentration in mol/L.

CCCCC/C=C\C/C=C\C/C=C\C/C=C\CCCC(=O)NCCO [ANANDAMIDE]: 5.52

INPUT: Query (molecule): CCCCC/C=C\C/C=C\C/C=C\C/C=C\CCC(C)(C)C(=O)OCCO ; field requested: pKi
OUTPUT: 5.68

----------
pKi, Cannabinoid receptor 1 (Rattus norvegicus, UniProt P20272), per-entry values.
pKi: −log10 of the molar value.

Answered cases to consult:
CCCCC/C=C\C/C=C\C/C=C\C/C=C\CCCC(=O)OCCO: < 5.00
CCCCC/C=C\C/C=C\C/C=C\C/C=C\CCC(C)(C)C(=O)OCCO: < 5.00

Now look at this one.
INPUT: Suppose we examine the compound CCCCC/C=C\C/C=C\C/C=C\C/C=C\CCCC(=O)CCCO ; what pKi value has been reported?
OUTPUT: 6.44

----------
Listed here are compounds together with their documented Affinity.
# systemName: Cannabinoid receptor 1 (Rattus norvegicus) (UniProt P20272)
# Sequence (P20272 whole entry): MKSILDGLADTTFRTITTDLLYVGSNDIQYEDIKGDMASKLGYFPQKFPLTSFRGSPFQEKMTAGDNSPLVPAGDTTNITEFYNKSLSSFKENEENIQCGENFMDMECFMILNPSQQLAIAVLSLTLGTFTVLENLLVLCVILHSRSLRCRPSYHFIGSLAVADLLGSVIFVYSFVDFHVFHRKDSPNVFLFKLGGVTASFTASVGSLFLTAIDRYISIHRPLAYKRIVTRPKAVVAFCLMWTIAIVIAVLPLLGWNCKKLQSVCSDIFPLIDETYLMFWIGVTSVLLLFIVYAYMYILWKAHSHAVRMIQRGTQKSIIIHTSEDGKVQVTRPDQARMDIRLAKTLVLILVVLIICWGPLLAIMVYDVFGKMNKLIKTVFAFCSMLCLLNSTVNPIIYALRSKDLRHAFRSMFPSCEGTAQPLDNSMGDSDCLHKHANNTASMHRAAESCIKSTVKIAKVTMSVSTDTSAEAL
# assaySummary: Percentage affinity towards Cannabinoid receptor 1 using [3H]CP-55940 as radioligand in rat forebrain membranes
# Format: cell membranes
# setupConditions: Membrane
Give the value in % but do not write % after it.

# example entries with known answers
CCCCC/C=C\C/C=C\C/C=C\C/C=C\CCCC(=O)OCCO: 83
CCCCC/C=C\C/C=C\C/C=C\C/C=C\CCC(C)(C)C(=O)OCCO: 100
CCCCC/C=C\C/C=C\C/C=C\C/C=C\CCCC(=O)NCCO [ANANDAMIDE]: 19
CCCCC/C=C\C/C=C\C/C=C\C/C=C\CCCC(=O)CCCO: 38

# ---- query compound ----
INPUT: Please report the recorded Affinity for CCCCC/C=C\C/C=C\CCCCCCCC(=O)CCCO .
OUTPUT: 72
